- Assay System: UniProt:P41968
- Sequence (P41968 whole entry): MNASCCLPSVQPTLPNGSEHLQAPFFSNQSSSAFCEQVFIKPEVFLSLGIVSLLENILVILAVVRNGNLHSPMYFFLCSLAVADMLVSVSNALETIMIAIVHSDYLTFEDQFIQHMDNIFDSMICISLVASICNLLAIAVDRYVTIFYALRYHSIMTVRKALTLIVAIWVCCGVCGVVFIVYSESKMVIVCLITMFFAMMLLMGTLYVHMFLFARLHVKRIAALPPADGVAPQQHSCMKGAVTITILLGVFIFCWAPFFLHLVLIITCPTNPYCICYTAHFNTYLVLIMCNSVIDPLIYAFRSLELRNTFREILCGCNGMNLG
- Assay Notes: Intracellular cAMP levels in live cells, MC3R agonist activity
- Assay Setup: cAMP split-luciferase reporter cell line stably expressing human MC3R; direct agonist effect, measurement window 1
Non-standard residues stand in square brackets, D forms with d. Residues, ends and D or L forms follow the SMILES beside them. Phe(4-I) = N[C@@H](Cc1ccc(I)cc1)C(=O)O; Nle = CCCC[C@H](N)C(=O)O

Compound	EC50
CCCC[C@H](NC(=O)[C@@H](NC(=O)[C@H](N)Cc1ccc(O)cc1)C(C)C)C(=O)N[C@H](C)C(=O)N[C@@H](Cc1c[nH]cn1)C(=O)N[C@@H](Cc1ccccc1)C(=O)N[C@@H](CCCNC(=N)N)C(=O)N[C@H](Cc1c[nH]c2ccccc12)C(=O)N[C@@H](CC(=O)O)C(=O)N[C@@H](CCCNC(=N)N)C(=O)N[C@@H](Cc1ccccc1)C(=O)NCC(=O)O [CTX-1125] (H-[dY]V[Nle][dA]HFR[dW]DRFG-OH)	1.7 nM
CCCC[C@H](NC(=O)[C@@H](NC(C)=O)C(C)C)C(=O)N[C@H](C)C(=O)N[C@@H](Cc1c[nH]cn1)C(=O)N[C@@H](Cc1ccccc1)C(=O)N[C@@H](CCCNC(=N)N)C(=O)N[C@H](Cc1c[nH]c2ccccc12)C(=O)N[C@@H](CC(=O)O)C(=O)N[C@@H](CCCNC(=N)N)C(=O)N[C@@H](Cc1ccccc1)C(=O)NCC(=O)O [CTX-1121] (Ac-V[Nle][dA]HFR[dW]DRFG-OH)	3.1 nM
CCCC[C@H](NC(C)=O)C(=O)N[C@H](C)C(=O)N[C@@H](Cc1c[nH]cn1)C(=O)N[C@@H](Cc1ccc(I)cc1)C(=O)N[C@@H](CCCNC(=N)N)C(=O)N[C@H](Cc1c[nH]c2ccccc12)C(=O)N[C@@H](CC(=O)O)C(=O)N[C@@H](CCCNC(=N)N)C(=O)N[C@@H](Cc1ccccc1)C(=O)NCC(=O)O [CTX-1167] (Ac-[Nle][dA]H[Phe(4-I)]R[dW]DRFG-OH)	4.8 nM
CCCC[C@H](NC(=O)[C@@H](NC(=O)[C@@H](N)Cc1ccc(O)cc1)C(C)C)C(=O)N[C@H](Cc1ccccc1)C(=O)N[C@@H](Cc1c[nH]cn1)C(=O)N[C@@H](Cc1ccccc1)C(=O)N[C@@H](CCCNC(=N)N)C(=O)N[C@H](Cc1c[nH]c2ccccc12)C(=O)N[C@@H](CC(=O)O)C(=O)N[C@@H](CCCNC(=N)N)C(=O)N[C@@H](Cc1ccccc1)C(=O)NCC(=O)O [CTX-1136] (H-YV[Nle][dF]HFR[dW]DRFG-OH)	1.9 nM
CC(C)[C@H](NC(=O)[C@@H](N)Cc1ccc(O)cc1)C(=O)N[C@@H](CCC(=O)O)C(=O)N[C@H](C)C(=O)N[C@@H](Cc1c[nH]cn1)C(=O)N[C@H](Cc1ccccc1)C(=O)N[C@@H](CCCNC(=N)N)C(=O)N[C@H](Cc1c[nH]c2ccccc12)C(=O)N[C@@H](CC(=O)O)C(=O)N[C@@H](CCCNC(=N)N)C(=O)N[C@@H](Cc1ccccc1)C(=O)NCC(=O)O [CTX-1106] (H-YVE[dA]H[dF]R[dW]DRFG-OH)	5.8 nM
